The measurements presented in this section are drawn from ChEMBL document CHEMBL6083290.

- MEASURED TARGET: Replicase polyprotein 1ab (Severe acute respiratory syndrome coronavirus 2, UniProt P0DTD1)
QUANTITY KIND: IC50
# answer = value followed by unit

COMPOUND | IC50
COc1ccc2nccc(C(=O)NCC(=O)N3CC(F)(F)C[C@H]3C#N)c2c1 | 9 nM

Request: Dear colleague, I am looking for the recorded IC50 of the following molecule: "Cc1c(COc2cc(OCc3cccc(C#N)c3)c(CN3C[C@H](O)C[C@@H]3C(=O)O)cc2Cl)cccc1-c1ccc2c(c1)OCCO2"
Result: 10.9 nM

* * *

- ASSAY PROCEDURE: in vitro
- TEST CONTEXT: rat, plasma
Non-standard residues stand in square brackets, D forms with d. Residues, ends and D or L forms follow the SMILES beside them. αMeP = C[C@@]1(C(=O)O)CCCN1
QUANTITY KIND: half-life (min)
Dear colleague, please return just the value in min, with no unit written.

Request: So what's the measured half-life for this one? C[C@@]1(C(=O)N[C@@H](CCC(=O)O)C(=O)O)CCCN1C(=O)CN [TROFINETIDE] (H-Gly-[αMeP]-Glu-OH)
Result: 49

* * *

- MEASURED TARGET: Replicase polyprotein 1ab (Severe acute respiratory syndrome coronavirus 2, UniProt P0DTD1)
QUANTITY KIND: IC50 (nM)
Please respond with the number in nM and leave the unit unwritten.

COMPOUND | UNITS LABEL | IC50
COc1ccc(/C=C/C(=O)N2C[C@@H](NC(=O)c3cccnc3)C[C@H]2C(=O)NO)cc1OC | nM | 9

// next item, IC50 requested
Request: GET /values?readout=IC50&item= C[C@@H](C(=O)N[C@H](C(=O)N1C[C@H](OC(F)F)C[C@H]1C(=O)N[C@H](C#N)C[C@@H]1CCNC1=O)C(C)(C)C)N(C)C(=O)CCCCCNc1cccc2c1C(=O)N(C1CCC(=O)NC1=O)C2=O (some centres not stated)
Result: 182

* * *

- MEASURED TARGET: Phosphatidylinositol 4,5-bisphosphate 3-kinase catalytic subunit alpha isoform (Homo sapiens)
- Sequence (P42336 whole entry, canonical isoform): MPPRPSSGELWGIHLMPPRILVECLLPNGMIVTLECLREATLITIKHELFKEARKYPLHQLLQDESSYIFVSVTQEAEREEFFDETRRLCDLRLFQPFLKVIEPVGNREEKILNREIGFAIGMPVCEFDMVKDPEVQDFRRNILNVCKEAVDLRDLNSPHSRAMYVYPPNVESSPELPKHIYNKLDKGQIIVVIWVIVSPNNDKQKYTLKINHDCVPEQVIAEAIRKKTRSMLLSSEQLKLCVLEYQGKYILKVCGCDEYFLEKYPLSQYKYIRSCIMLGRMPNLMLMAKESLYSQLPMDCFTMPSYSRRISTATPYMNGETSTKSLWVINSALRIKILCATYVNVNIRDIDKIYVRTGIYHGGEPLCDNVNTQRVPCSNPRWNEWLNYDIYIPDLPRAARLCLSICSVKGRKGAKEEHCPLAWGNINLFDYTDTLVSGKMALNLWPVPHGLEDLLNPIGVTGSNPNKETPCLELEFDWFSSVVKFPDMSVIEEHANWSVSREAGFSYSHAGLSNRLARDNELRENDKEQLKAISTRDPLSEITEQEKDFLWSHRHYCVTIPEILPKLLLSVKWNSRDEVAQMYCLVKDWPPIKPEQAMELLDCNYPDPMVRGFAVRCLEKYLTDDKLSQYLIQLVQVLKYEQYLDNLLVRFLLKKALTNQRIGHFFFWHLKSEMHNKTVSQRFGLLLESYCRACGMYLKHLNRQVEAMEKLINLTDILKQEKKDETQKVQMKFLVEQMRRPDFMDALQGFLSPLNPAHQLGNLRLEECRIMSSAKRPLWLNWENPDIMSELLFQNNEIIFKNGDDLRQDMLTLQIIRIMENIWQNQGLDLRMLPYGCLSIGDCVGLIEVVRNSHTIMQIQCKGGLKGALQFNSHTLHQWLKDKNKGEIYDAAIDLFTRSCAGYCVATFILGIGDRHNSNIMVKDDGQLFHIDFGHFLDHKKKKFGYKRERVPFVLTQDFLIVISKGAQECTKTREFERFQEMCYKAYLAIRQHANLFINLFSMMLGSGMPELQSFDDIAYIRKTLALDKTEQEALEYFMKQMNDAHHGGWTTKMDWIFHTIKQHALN
- ASSAY PROCEDURE: Inhibition of PI3Kalpha (unknown origin) using PIP2 as substrate measured after 30 mins by TR-FRET assay
QUANTITY KIND: IC50 (nM)
The reply should be a number in nM, with the unit left off.

Request: Which measured IC50 value corresponds to "O=C(/C=C/c1cccc(S(=O)(=O)Nc2ccccc2)c1)NO" ?
Result: 2.9
